biological target: GABA transporter 3 (Mus musculus, UniProt P31649); assay: Inhibition of mouse GAT3 stably expressed in HEK293 assessed as inhibition of [3H]GABA uptake after 25 mins by liquid scintillation counting
Sequence (P31649 whole entry): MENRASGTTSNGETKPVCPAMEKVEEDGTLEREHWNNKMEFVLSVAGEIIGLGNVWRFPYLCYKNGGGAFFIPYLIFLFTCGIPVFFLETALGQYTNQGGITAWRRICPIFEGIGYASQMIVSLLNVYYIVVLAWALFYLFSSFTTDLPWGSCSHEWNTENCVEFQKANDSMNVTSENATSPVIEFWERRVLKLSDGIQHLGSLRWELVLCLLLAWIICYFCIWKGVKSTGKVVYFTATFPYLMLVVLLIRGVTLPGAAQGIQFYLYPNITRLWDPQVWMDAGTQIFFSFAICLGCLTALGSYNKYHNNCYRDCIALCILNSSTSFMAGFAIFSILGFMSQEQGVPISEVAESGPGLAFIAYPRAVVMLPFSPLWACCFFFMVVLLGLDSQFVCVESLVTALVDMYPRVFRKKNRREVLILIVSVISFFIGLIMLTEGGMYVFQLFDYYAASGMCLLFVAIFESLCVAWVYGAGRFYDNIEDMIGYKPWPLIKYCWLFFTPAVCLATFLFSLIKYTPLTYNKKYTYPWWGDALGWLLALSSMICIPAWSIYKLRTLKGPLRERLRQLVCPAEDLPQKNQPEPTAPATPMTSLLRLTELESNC
This section presents compounds with their documented pIC50 values.
In simple prose, pIC50 is minus the logarithm base ten of a concentration in moles per litre.

• O=C(O)[C@@H]1CCCN(CCOCCc2ccc(/N=N/c3cccc4ccccc34)cc2)C1 = 4.71
• O=C(O)C1CCCN(CCOCCc2ccccc2/N=N/c2ccccc2)C1 (stereo not given) = 3.84
• O=C(O)[C@@H]1CCCN(CCOCCc2cccc(/N=N/c3cccc4ccccc34)c2)C1 = 4.60

Could you now look at the following compound, please?
Value lookup for pIC50; key = O=C(O)C1CCCN(CCOCCc2cccc(/N=N/c3ccccc3)c2)C1 (stereo not given) 3.83

====

biological target: UniProt P31648; test: Inhibition of mouse GAT1 stably expressed in HEK293 assessed as inhibition of [3H]GABA uptake after 25 mins by liquid scintillation counting; assay type: cell-based
Listed compounds paired with reported pIC50
Scale note: pIC50 = -log10(concentration in M).

Worked examples, 4 compounds total:
- O=C(O)[C@@H]1CCCN(CCOCCc2ccc(/N=N/c3cccc4ccccc34)cc2)C1: 6.57
- O=C(O)[C@@H]1CCCN(CCOCCc2cccc(/N=N/c3cccc4ccccc34)c2)C1: 6.39
- O=C(O)C1CCCN(CCOCCc2ccccc2/N=N/c2ccccc2)C1 (stereo not given): 4.97
- O=C(O)C1CCCN(CCOCCc2ccc(/N=N/c3ccccc3)cc2)C1 (stereo not given): 5.72

Consider the record given below.
For UniProt P31648, provide pIC50 of O=C(O)C1CCCN(CCOCCc2cccc(/N=N/c3ccccc3)c2)C1 (stereo not given) please. 5.50

====

biological target: UniProtKB P31648; assay: Inhibition of mouse GAT1 stably expressed in HEK293 assessed as inhibition of [3H]GABA uptake treated with compound irradiated at 350 nm for 30 mins measured after 25 mins by liquid scintillation counting; type: cell-based
Entries and their pIC50
Just so you know, pIC50 here is -log10 of the concentration in molar units; reply with that number alone.

Query pIC50 on UniProtKB P31648 for O=C(O)C1CCCN(CCOCCc2ccc(/N=N\c3ccccc3)cc2)C1 (stereo unspecified) 5.34

GET /values?readout=pIC50&system=UniProtKB P31648&item= O=C(O)C1CCCN(CCOCCc2cccc(/N=N\c3ccccc3)c2)C1 (stereo unspecified) 5.38

Provide value of pIC50 for this record tested with UniProtKB P31648: O=C(O)C1CCCN(CCOCCc2cccc(/N=N/c3ccccc3)c2)C1 (stereo unspecified) 5.38

Return pIC50 measured with UniProtKB P31648 given this molecule: O=C(O)C1CCCN(CCOCCc2ccccc2/N=N\c2ccccc2)C1 (stereo unspecified) 5.26

Request: pIC50, test system UniProtKB P31648, entry O=C(O)C1CCCN(CCOCCc2ccccc2/N=N/c2ccccc2)C1 (stereo unspecified) 5.26

// map O=C(O)C1CCCN(CCOCCc2ccc(/N=N/c3ccccc3)cc2)C1 (stereo unspecified) to recorded pIC50 (system: UniProtKB P31648) 5.34

====

molecular target: GABA transporter 4 (Mus musculus, UniProt P31650); assay: Inhibition of mouse GAT4 stably expressed in HEK293 assessed as inhibition of [3H]GABA uptake after 25 mins by liquid scintillation counting
Sequence (P31650 whole entry): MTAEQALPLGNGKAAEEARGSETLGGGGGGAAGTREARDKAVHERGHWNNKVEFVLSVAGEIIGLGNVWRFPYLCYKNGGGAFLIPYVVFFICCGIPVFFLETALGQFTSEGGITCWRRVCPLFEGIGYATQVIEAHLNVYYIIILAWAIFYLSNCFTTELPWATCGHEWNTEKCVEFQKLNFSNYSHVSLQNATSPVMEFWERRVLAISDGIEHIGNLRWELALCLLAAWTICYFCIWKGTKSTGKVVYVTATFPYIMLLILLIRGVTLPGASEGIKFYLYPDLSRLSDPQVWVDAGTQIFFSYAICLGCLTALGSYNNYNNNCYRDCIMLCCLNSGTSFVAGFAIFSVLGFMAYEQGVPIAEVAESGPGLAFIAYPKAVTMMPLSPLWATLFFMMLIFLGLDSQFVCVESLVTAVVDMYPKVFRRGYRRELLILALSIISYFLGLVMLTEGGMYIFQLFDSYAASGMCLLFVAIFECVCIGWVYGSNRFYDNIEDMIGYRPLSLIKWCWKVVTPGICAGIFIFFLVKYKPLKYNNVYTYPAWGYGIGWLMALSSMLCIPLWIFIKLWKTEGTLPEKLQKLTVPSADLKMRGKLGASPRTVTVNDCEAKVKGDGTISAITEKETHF
Below is a list of entries, each paired with its recorded pIC50 value.
As a rule, pIC50 stands for the negative log10 of the concentration, concentration in M.

Please review the following examples before continuing.
* O=C(O)C1CCCN(CCOCCc2ccccc2/N=N/c2ccccc2)C1 (stereo not given) | 3.25
* O=C(O)[C@@H]1CCCN(CCOCCc2ccc(/N=N/c3cccc4ccccc34)cc2)C1 | 4.64
* O=C(O)[C@@H]1CCCN(CCOCCc2cccc(/N=N/c3cccc4ccccc34)c2)C1 | 4.51

Next:
Find the recorded pIC50 belonging to O=C(O)C1CCCN(CCOCCc2cccc(/N=N/c3ccccc3)c2)C1 (stereo not given) and report it. 3.68

Data credit: ChEMBL document CHEMBL3351652
